Tested on: SNB-75 CNS
Assay: NCI-60 one-dose screen, 48 h (100 = growth as untreated, 0 = no growth, -100 = all killed)
Details: 10 µM unless noted
About 83,000 compounds went through this panel and 20% of them were active in at least one assay; those are over-represented in the sample as a whole.
Recorded growth values for a group of compounds are listed next.
metric: growth (%)

compound: O=[N+]([O-])c1cc([N+](=O)[O-])c(Nn2c3ccccc3c3ccccc32)c([N+](=O)[O-])c1
metric: growth
reading: -19.7

compound: CCCc1cc(O)c2c3c(c(=O)oc2c1)CN(C)CC3
metric: growth
reading: -8.41

compound: N#C[S-].[Au+].c1ccc(CN2[CH-]N(Cc3ccccc3)C(c3ccccc3)=C2c2ccccc2)cc1
metric: growth
reading: 43.6

compound: C[C@]12C[C@@H](CO)[C@H](O)C[C@@H]1CC[C@@H]1[C@@H]2CC[C@]2(C)[C@@H](O)CC[C@@H]12
metric: growth
reading: 107

compound: CC(=O)OC1CCC2C3CCC4=C/C(=N/OC(=O)c5ccc(N(CCCl)CCCl)cc5)CCC4(C)C3CC(C)C12 (centres undefined)
metric: growth
reading: 70.5

compound: C=CCCCCCCCCC(=O)[O-].C=CCCCCCCCCC(=O)[O-].[Zn+2]
metric: growth
reading: 103

compound: O=C(O)C1C(C(=O)O)C2(Cl)C(Cl)=C(Cl)C1(Cl)C2(Cl)Cl.[Hg] (centres undefined)
metric: growth
reading: 86.6

compound: COc1ccc(Nc2ccnc3cc(Cl)ccc23)cc1CN(CCCl)CCCl
metric: growth
reading: -10.8

compound: CCn1c2ccccc2c2cc(C(=O)c3cccc4c3CCCN4)ccc21
metric: growth
reading: 91.6
